- System: Tyrosine-protein phosphatase non-receptor type 7 (Homo sapiens)
- Sequence (P35236 whole entry): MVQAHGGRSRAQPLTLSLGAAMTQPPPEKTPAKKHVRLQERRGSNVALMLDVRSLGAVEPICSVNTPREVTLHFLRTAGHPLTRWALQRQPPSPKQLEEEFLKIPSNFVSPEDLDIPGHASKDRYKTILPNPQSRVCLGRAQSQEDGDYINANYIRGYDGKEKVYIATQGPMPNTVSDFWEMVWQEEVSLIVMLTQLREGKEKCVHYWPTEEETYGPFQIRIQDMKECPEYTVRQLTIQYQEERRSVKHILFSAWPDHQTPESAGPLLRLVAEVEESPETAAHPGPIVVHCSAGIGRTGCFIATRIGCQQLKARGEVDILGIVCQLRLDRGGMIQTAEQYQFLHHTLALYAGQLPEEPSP
Parameter measured: IC50 (µM)
State just the number; it will be interpreted in µM.

Quick check: IC50 on Tyrosine-protein phosphatase non-receptor type 7 (Homo sapiens), item "O=C(O)[C@H](Cc1ccccc1)Oc1ccc(-c2ccc(-c3c(Cc4ccccc4)oc4ccccc34)cc2)cc1" ?
7.1

====

- System: Tyrosine-protein phosphatase non-receptor type 1 (Homo sapiens)
- Protocol details: Inhibition of human recombinant PTP1B (1 to 321 residues) expressed in Escherichia coli BL21 (DE3) assessed as inhibition constant using pNPP as substrate by Michaelis-Menten analysis
Parameter measured: pKi
pKi here: minus log base 10 of the concentration, concentration in moles per litre.

Quick check: pKi on Tyrosine-protein phosphatase non-receptor type 1 (Homo sapiens), item "O=C(CCc1ccc(C(F)(F)P(=O)(O)O)cc1)Nc1cc(NC(=O)CCc2ccc(C(F)(F)P(=O)(O)O)cc2)cc(C(=O)NCCc2ccc(C(=O)O)cc2)c1" ?
6.03

====

- System: Tyrosine-protein phosphatase non-receptor type 1 (Homo sapiens, UniProt P18031)
- Sequence (P18031 whole entry): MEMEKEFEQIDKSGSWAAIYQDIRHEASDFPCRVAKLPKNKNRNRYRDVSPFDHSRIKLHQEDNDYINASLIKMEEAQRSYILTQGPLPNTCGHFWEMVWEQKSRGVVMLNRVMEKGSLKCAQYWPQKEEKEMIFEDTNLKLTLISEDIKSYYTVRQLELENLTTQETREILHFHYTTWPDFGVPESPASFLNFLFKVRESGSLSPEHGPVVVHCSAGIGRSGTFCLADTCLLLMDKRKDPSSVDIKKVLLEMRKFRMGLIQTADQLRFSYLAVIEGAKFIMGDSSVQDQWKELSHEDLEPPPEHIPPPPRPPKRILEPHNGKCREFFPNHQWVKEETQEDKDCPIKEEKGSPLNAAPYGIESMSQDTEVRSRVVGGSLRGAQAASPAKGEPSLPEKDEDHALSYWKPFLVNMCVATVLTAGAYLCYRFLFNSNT
- Protocol details: Inhibition of PTP1B (unknown origin)
Decide using IC50 alone. Strictly below 200 nM: condition met. Equal to or above 200 nM: condition not met.

Worked examples follow.
# Compound, Assigned class
records = [
    ("O=[N+]([O-])c1cc(S(=O)(=O)C(F)(F)F)ccc1Oc1ccc(S(=O)(=O)c2ccc(Oc3ccc(S(=O)(=O)C(F)(F)F)cc3[N+](=O)[O-])cc2)cc1", "condition not met"),
    ("CCCCCCCC/C(=C/Cn1oc(=O)n(CC(=O)O)c1=O)c1cccc(OCc2nc(-c3ccc(C(F)(F)F)cc3)oc2C)c1", "condition met"),
    ("CCc1cc(CC(NC(C)=O)C(=O)NCCCCC(=O)N[C@@H](CCSC)C(=O)O)ccc1N(C(=O)C(=O)O)c1ccccc1C(=O)O (some centres not stated)", "condition met"),
]

Given "C/C(=C\Cn1oc(=O)[nH]c1=O)c1cccc(OCc2nc(-c3ccc(C(F)(F)F)cc3)oc2-c2ccccc2)c1" , is recorded IC50 strictly lower than 200 nM?
condition not met

Given "CCCCCCCC/C(=C\Cn1oc(=O)n(CC(=O)O)c1=O)c1cccc(OCc2nc(-c3ccc(C(F)(F)F)cc3)oc2C)c1" , is recorded IC50 strictly lower than 200 nM?
condition met

Given "CC(C)(C)OC(=O)COc1ccc(CC2=C(c3c[nH]c4ccccc34)c3ccccc3C(=O)C2=O)cc1" , is recorded IC50 strictly lower than 200 nM?
condition not met

Provenance of the data: ChEMBL document CHEMBL5244260
